- Test System: human β3-adrenergic receptor (Homo sapiens)
- Construct: Full length β3 AR clones (402 amino acids) containing the last 6 amino acids of hβ3—AR are prepared; expressed in transfected cells; host or cells: CHO cells
- Test Summary: cAMP response (SPA kit) in CHO cells transfected with human β3 adrenergic receptor
- Format: cell-based
- Experimental Context: maximal response of compound compared to maximal response of isoproterenol at 10^-5 M; CHO cells, human β3-AR
Assay Endpoint: IA(β3)
Answers are plain numbers.

Smiles Repr	Test System	IA(β3)
CCCCCCCCNC(=O)N1CCC(S(=O)(=O)c2ccc(CCNC[C@H](O)COc3ccc(O)c(C)c3)cc2)CC1	human β3-adrenergic receptor (Homo sapiens)	0.7

Could you report IA(β3) for every entry in the following list?
1. CCCCCCCCNC(=O)N1CCC(Nc2ccc(CCNC[C@H](O)c3cccc(Cl)c3)cc2)CC1
2. O=C(NCc1ccc(F)cc1)N1CCC(S(=O)(=O)c2ccc(CCNC[C@H](O)COc3ccc(O)cc3)cc2)CC1
3. O=C(NCCCC1CCCCC1)N1CCC(Nc2ccc(CCNC[C@H](O)COc3ccc(O)cc3)cc2)CC1

Key:
[0.77, 1.07, 1.1]

* * *

- Test System: human β3-adrenergic receptor (Homo sapiens, UniProt P13945)
- Construct: Full length β3 AR clones (402 amino acids) containing the last 6 amino acids of hβ3—AR are prepared; expressed in transfected cells; host or cells: CHO cells
- Sequence (P13945 whole entry): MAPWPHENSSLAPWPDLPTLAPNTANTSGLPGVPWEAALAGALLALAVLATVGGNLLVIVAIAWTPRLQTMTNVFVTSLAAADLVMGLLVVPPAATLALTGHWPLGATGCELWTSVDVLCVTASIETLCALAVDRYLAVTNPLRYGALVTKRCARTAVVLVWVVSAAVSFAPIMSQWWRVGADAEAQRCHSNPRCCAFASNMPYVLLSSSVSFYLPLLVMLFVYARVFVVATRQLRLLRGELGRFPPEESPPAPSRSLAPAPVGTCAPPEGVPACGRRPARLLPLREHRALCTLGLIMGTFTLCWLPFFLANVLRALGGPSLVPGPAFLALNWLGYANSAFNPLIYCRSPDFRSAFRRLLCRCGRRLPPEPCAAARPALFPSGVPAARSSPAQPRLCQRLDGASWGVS
- Test Summary: cAMP response (SPA kit) in CHO cells transfected with human β3 adrenergic receptor
- Format: cell-based
- Experimental Context: maximal response of compound compared to maximal response of isoproterenol at 10^-5 M; CHO cells, human β3-AR
Recorded IA(β3) split into classes band A: < 0.8; band B: ≥ 0.8 and < 0.9; band C: ≥ 0.9

Consider the worked cases shown below.
Compound	Test System	Label Value
O=C(O)C1CCN(C(=O)N2CCC(Nc3ccc(CCNC[C@H](O)COc4ccc(O)cc4)cc3)CC2)CC1 [Example 62]	human β3-adrenergic receptor (Homo sapiens, UniProt P13945)	band C
Cc1ccsc1C(=O)N1CCC(Nc2ccc(CCNC[C@H](O)COc3ccc(O)cc3)cc2)CC1 [Example 100]	human β3-adrenergic receptor (Homo sapiens, UniProt P13945)	band C
Cc1ccc(C(=O)CCNC(=O)N2CCC(Nc3ccc(CCNC[C@H](O)COc4ccc(O)cc4)cc3)CC2)cc1 [Example 28]	human β3-adrenergic receptor (Homo sapiens, UniProt P13945)	band A

Exercise: Given O=C(CCNC(=O)N1CCC(Nc2ccc(CCNC[C@H](O)COc3ccc(O)cc3)cc2)CC1)Nc1ccc(F)cc1 [Example 81] , name the class its IA(β3) places it in.
Key: band C

Exercise: Given O=C(NCc1cc(F)cc(F)c1)N1CCC(Nc2ccc(CCNC[C@H](O)COc3ccc(O)cc3)cc2)CC1 [Example 24] , name the class its IA(β3) places it in.
Key: band B

Exercise: Given O=C(c1cc2cc(Br)ccc2[nH]1)N1CCC(Nc2ccc(CCNC[C@H](O)COc3ccc(O)cc3)cc2)CC1 [Example 96] , name the class its IA(β3) places it in.
Key: band B

Exercise: Given CS(=O)(=O)Nc1cc([C@@H](O)CNCCc2ccc(NC3CCN(C(=O)NCc4cc(F)ccc4F)CC3)cc2)ccc1O [Example 76] , name the class its IA(β3) places it in.
Key: band C
